Values compiled from ChEMBL document CHEMBL1240350.

Test system: Streptococcus pneumoniae
Method summary: Antibacterial activity against macrolide-resistant Streptococcus pneumoniae 2686 harboring mutation in L4 ribosomal protein after 25 passages and 10 compound-free subculturing by retest method
Format: functional

- Compound: "CC[C@H]1OC(=O)[C@@](C)(F)C(=O)[C@H](C)[C@@H](O[C@@H]2O[C@H](C)C[C@H](N(C)C)[C@H]2O)[C@](C)(OC)C[C@@H](C)C(=O)[C@H](C)[C@H]2N(CCCCn3cc(-c4cccc(N)c4)nn3)C(=O)O[C@]12C [SOLITHROMYCIN]"
  Unit annotation: "µg/mL"
  MIC: 0.016

----------
Method summary: Tmax in human at 400 to 500 mg
Test settings: in vivo
Value type: Tmax

- Smiles entry: "CC[C@H]1OC(=O)[C@@](C)(F)C(=O)[C@H](C)[C@@H](O[C@@H]2O[C@H](C)C[C@H](N(C)C)[C@H]2O)[C@](C)(OC)C[C@@H](C)C(=O)[C@H](C)[C@H]2N(CCCCn3cc(-c4cccc(N)c4)nn3)C(=O)O[C@]12C"
  Result: "4 h"

----------
System: Streptococcus pneumoniae
Method summary: Antibacterial activity against Streptococcus pneumoniae harboring mutation in L4 ribosomal protein after overnight incubation by agar dilution method
Type: functional

- Molecule: "CC1(C)S[C@@H]2[C@H](NC(=O)Cc3ccccc3)C(=O)N2[C@H]1C(=O)O [PENICILLIN G]"
  MIC50: "4 µg/mL"
- Molecule: "C[C@H]1COc2c(N3CCN(C)CC3)c(F)cc3c(=O)c(C(=O)O)cn1c23.C[C@H]1COc2c(N3CCN(C)CC3)c(F)cc3c(=O)c(C(=O)O)cn1c23.O [LEVOFLOXACIN]"
  MIC50: "1 µg/mL"
- Molecule: "CC[C@H]1OC(=O)[C@H](C)C(=O)[C@H](C)[C@@H](O[C@@H]2O[C@H](C)C[C@H](N(C)C)[C@H]2O)[C@](C)(OC)C[C@@H](C)C(=O)[C@H](C)[C@H]2N(CCCCn3cnc(-c4cccnc4)c3)C(=O)O[C@]12C [TELITHROMYCIN]"
  MIC50: "0.125 µg/mL"
- Molecule: "CC[C@H]1OC(=O)[C@H](C)[C@@H](O[C@H]2C[C@@](C)(OC)[C@@H](O)[C@H](C)O2)[C@H](C)[C@@H](O[C@@H]2O[C@H](C)C[C@H](N(C)C)[C@H]2O)[C@](C)(OC)C[C@@H](C)C(=O)[C@H](C)[C@@H](O)[C@]1(C)O [CLARITHROMYCIN]"
  MIC50: "16 µg/mL"
- Molecule: "CCC[C@@H]1C[C@@H](C(=O)N[C@@H]([C@H]2O[C@H](SC)[C@H](O)[C@@H](O)[C@H]2O)[C@H](C)Cl)N(C)C1 [CLINDAMYCIN]"
  MIC50: "0.06 µg/mL"

----------
System: Streptococcus pneumoniae
Method summary: Antibacterial activity against macrolide-resistant Streptococcus pneumoniae harboring mef(A) gene after overnight incubation by agar dilution method
Assay type: functional
Response field label takes class 1 when MIC90 is strictly below 2 µg/mL and class 0 in all other cases.

- Smiles entry: "CC[C@H]1OC(=O)[C@H](C)[C@@H](O[C@H]2C[C@@](C)(OC)[C@@H](O)[C@H](C)O2)[C@H](C)[C@@H](O[C@@H]2O[C@H](C)C[C@H](N(C)C)[C@H]2O)[C@](C)(O)C[C@@H](C)C(=O)[C@H](C)[C@@H](O)[C@]1(C)O"
  Category label: "class 0"
- Smiles entry: "CC[C@H]1OC(=O)[C@H](C)C(=O)[C@H](C)[C@@H](O[C@@H]2O[C@H](C)C[C@H](N(C)C)[C@H]2O)[C@](C)(OC)C[C@@H](C)C(=O)[C@H](C)[C@H]2N(CCCCn3cnc(-c4cccnc4)c3)C(=O)O[C@]12C"
  Category label: "class 1"
- Smiles entry: "CC1(C)S[C@@H]2[C@H](NC(=O)Cc3ccccc3)C(=O)N2[C@H]1C(=O)O"
  Category label: "class 0"
- Smiles entry: "CC[C@H]1OC(=O)[C@H](C)[C@@H](O[C@H]2C[C@@](C)(OC)[C@@H](O)[C@H](C)O2)[C@H](C)[C@@H](O[C@@H]2O[C@H](C)C[C@H](N(C)C)[C@H]2O)[C@](C)(OC)C[C@@H](C)C(=O)[C@H](C)[C@@H](O)[C@]1(C)O"
  Category label: "class 0"
- Smiles entry: "CC[C@H]1OC(=O)[C@H](C)[C@@H](O[C@H]2C[C@@](C)(OC)[C@@H](O)[C@H](C)O2)[C@H](C)[C@@H](O[C@@H]2O[C@H](C)C[C@H](N(C)C)[C@H]2O)[C@](C)(O)C[C@@H](C)CN(C)[C@H](C)[C@@H](O)[C@]1(C)O"
  Category label: "class 0"
- Smiles entry: "CCC[C@@H]1C[C@@H](C(=O)N[C@@H]([C@H]2O[C@H](SC)[C@H](O)[C@@H](O)[C@H]2O)[C@H](C)Cl)N(C)C1"
  Category label: "class 1"
- Smiles entry: "COc1c(N2C[C@@H]3CCCN[C@@H]3C2)c(F)cc2c(=O)c(C(=O)O)cn(C3CC3)c12"
  Category label: "class 1"
- Smiles entry: "CC[C@H]1OC(=O)[C@@](C)(F)C(=O)[C@H](C)[C@@H](O[C@@H]2O[C@H](C)C[C@H](N(C)C)[C@H]2O)[C@](C)(OC)C[C@@H](C)C(=O)[C@H](C)[C@H]2N(CCCCn3cc(-c4cccc(N)c4)nn3)C(=O)O[C@]12C"
  Category label: "class 1"
